inhibition at 250 µg/mL: recorded values
- Test system: Fusarium udum
- Assay name: Antifungal activity against Fusarium udum assessed as growth inhibition at 250 ug/ml by poisoned food technique
- Type: functional
Return type: number; implicit unit %.

Some solved cases for reference:
> print(dat)
                                   compound        recorded.endpoint  experimental.value
1  COC(=O)c1c(C)cc(O)c(C)c1O [ATRARIC ACID]  inhibition at 250 µg/mL                80.5
2  CC(=O)C1=C(O)C=C2Oc3c(C)c(O)c(C(C)=O)c(O)c3C2(C)C1=O (racemic) [(+/-)-ISOUSNIC ACID]  inhibition at 250 µg/mL                  81

We now examine a further compound.
I'd like to know its inhibition at 250 µg/mL. The compound in question is CCOC(=O)c1c(C)cc(O)cc1O [ORSELLINIC ACID, ETHYL ESTER]
79.4
